measuredTarget: ATM kinase (Homo sapiens, UniProt Q13315)
Construct: endogenous in cells; host or cells: HT29 cells (ECACC #85061109)
assayName: Assay a): ATM cellular potency (pATM Ser1981 in irradiated HT29 cells)
Type: cell-based
protocolConditions: HT29 cells, X-ray irradiation, pATM Ser1981; Table 3 comparative data; read-out: Assay a) ATM Cell IC50
# pIC50 values compiled below
pIC50 (log units): -log10 of the concentration in mol/L.

Previously resolved entries follow.
COc1ccc(-c2ccc3ncc4c(c3c2)n(C2CCN(C(C)=O)CC2)c(=O)n4C)cn1 [CN102372711A Compound 5, reference compound]
7.58
Cn1c(=O)n(C2CC2)c2c3cc(-c4cnc(N)nc4)ccc3ncc21 [CN102399218A Compound 64, reference compound]
6.67
Cn1c(=O)n(C2CNC2)c2c3cc(-c4cnc5[nH]ccc5c4)ccc3ncc21 [CN102399218A Compound 61, reference compound]
5.46

API: the following record is the query input.
Prompt: Provide only the value of recorded pIC50 for COC(=O)N1CCC(n2c(=O)n(C)c3cnc4ccc(-c5ccc(OC)nc5)cc4c32)CC1 [CN102372711A Compound 4, reference compound]
Completion: 7.95

====

# log10 of IC50 values compiled below
measuredTarget: ATM kinase (Homo sapiens, UniProt Q13315)
Construct: endogenous in cells; host or cells: HT29 cells (ECACC #85061109)
assayName: Assay a): ATM cellular potency (pATM Ser1981 in irradiated HT29 cells)
Type: cell-based
protocolConditions: HT29 cells, X-ray irradiation, pATM Ser1981; Table 2; read-out: Assay a) ATM Cell IC50
Please interpret these as log10 of IC50 where IC50 is in nM.

Previously resolved entries follow.
Cn1c(=O)n([C@@H]2CCCOC2)c2c3cc(-c4ccc(OCCN5CCCC5)cc4)ccc3ncc21
1.13
CN(C)CCOc1ccc(-c2ccc3ncc4c(c3c2)n([C@H]2CCCOC2)c(=O)n4C)cc1
1.16
CO[C@@H]1CCC[C@H](n2c(=O)n(C)c3cnc4ccc(-c5ccc(OCCCN(C)C)cc5)cc4c32)C1 (relative stereo) [Example 32]
0.37

Prompt: Please tell me the measured log10 of IC50 for CO[C@H]1CC[C@@H](n2c(=O)n(C)c3cnc4ccc(-c5ccc(OCCCN6CCCC6)cc5)cc4c32)CC1 ; system: ATM kinase (Homo sapiens, UniProt Q13315).
Completion: -0.31

Prompt: Please tell me the measured log10 of IC50 for CO[C@@H]1CC[C@H](n2c(=O)n(C)c3cnc4cc(F)c(-c5ccc(OCCCN(C)C)cc5)cc4c32)C1 (single isomer, unassigned) [Example 37] ; system: ATM kinase (Homo sapiens, UniProt Q13315).
Completion: 0.47

Prompt: Please tell me the measured log10 of IC50 for CO[C@H]1CC[C@H](n2c(=O)n(C)c3cnc4ccc(-c5ccc(OCCCN6CCCCC6)cc5)cc4c32)C1 ; system: ATM kinase (Homo sapiens, UniProt Q13315).
Completion: -0.46

Prompt: Please tell me the measured log10 of IC50 for CO[C@H]1CCC[C@H](n2c(=O)n(C)c3cnc4ccc(-c5ccc(OCCCN(C)C)cc5)cc4c32)C1 (single isomer, unassigned) [Example 28] ; system: ATM kinase (Homo sapiens, UniProt Q13315).
Completion: -0.55

====

measuredTarget: ATR kinase (Homo sapiens)
Construct: endogenous in cells; host or cells: HT29 cells (ECACC #85061109)
Sequence (Q13535 whole entry): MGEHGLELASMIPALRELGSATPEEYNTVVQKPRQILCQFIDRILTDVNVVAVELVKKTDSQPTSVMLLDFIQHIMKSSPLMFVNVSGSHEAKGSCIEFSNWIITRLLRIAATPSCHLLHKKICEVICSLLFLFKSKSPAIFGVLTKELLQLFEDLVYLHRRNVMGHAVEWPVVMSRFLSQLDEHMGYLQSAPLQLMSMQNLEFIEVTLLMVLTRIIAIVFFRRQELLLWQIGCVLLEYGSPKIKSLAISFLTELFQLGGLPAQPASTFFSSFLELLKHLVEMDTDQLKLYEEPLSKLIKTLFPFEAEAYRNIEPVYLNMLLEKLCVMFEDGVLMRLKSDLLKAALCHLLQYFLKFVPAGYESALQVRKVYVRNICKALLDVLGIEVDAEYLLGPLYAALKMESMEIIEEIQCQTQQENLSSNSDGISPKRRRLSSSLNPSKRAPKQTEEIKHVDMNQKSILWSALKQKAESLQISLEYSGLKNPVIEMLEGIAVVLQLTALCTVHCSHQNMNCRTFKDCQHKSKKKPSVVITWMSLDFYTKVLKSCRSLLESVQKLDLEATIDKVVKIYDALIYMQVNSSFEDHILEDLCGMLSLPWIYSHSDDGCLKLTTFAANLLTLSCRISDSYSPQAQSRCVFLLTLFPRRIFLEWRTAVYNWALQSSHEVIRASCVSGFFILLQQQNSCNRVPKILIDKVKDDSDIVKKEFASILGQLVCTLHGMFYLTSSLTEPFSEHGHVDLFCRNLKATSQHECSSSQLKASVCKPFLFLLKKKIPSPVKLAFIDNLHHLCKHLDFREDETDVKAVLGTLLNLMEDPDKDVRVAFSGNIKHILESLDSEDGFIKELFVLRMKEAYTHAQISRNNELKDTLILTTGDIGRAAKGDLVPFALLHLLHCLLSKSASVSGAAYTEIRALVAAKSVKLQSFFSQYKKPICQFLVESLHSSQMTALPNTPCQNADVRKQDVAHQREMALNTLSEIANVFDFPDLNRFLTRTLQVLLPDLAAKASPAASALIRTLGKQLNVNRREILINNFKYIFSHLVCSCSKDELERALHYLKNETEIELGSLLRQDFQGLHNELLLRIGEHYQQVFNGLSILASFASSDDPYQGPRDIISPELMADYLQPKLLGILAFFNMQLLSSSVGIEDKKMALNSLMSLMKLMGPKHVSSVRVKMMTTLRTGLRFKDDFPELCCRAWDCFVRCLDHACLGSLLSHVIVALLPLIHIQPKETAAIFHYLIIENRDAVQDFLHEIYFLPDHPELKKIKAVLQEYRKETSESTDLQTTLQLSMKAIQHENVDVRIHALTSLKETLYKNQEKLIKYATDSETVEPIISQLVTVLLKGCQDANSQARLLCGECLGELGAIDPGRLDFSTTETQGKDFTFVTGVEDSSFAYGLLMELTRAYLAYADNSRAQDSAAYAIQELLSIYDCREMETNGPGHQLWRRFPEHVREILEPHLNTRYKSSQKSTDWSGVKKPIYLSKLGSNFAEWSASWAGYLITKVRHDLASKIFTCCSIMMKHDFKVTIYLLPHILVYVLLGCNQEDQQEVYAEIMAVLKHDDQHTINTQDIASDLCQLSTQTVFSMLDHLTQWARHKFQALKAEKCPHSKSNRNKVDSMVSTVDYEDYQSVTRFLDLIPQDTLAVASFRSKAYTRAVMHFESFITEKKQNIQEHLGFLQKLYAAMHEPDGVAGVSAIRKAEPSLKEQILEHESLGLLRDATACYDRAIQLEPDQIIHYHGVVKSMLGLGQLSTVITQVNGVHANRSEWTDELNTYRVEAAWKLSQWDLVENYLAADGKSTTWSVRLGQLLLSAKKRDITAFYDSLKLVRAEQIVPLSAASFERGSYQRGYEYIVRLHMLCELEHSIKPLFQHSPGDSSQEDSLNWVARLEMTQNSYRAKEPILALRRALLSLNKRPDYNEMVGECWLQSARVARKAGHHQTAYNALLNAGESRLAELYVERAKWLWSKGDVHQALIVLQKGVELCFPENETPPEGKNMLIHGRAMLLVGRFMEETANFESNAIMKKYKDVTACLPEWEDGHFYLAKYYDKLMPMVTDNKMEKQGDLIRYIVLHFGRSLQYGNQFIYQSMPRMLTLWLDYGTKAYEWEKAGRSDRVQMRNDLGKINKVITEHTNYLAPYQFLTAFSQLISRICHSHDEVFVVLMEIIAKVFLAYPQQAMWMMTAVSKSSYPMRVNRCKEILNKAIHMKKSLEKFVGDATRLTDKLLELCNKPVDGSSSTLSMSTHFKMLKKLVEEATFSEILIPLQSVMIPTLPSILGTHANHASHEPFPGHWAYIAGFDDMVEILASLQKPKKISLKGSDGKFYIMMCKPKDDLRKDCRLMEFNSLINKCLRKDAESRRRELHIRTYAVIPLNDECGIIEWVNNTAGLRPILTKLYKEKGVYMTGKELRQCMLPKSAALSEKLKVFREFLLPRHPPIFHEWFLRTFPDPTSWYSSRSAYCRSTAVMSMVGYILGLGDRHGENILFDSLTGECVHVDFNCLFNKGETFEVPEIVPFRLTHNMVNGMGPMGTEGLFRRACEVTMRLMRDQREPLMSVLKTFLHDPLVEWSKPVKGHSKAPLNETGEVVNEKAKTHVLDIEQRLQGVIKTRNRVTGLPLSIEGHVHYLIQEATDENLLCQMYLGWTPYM
Sequence (Q8WXE1 whole entry partner): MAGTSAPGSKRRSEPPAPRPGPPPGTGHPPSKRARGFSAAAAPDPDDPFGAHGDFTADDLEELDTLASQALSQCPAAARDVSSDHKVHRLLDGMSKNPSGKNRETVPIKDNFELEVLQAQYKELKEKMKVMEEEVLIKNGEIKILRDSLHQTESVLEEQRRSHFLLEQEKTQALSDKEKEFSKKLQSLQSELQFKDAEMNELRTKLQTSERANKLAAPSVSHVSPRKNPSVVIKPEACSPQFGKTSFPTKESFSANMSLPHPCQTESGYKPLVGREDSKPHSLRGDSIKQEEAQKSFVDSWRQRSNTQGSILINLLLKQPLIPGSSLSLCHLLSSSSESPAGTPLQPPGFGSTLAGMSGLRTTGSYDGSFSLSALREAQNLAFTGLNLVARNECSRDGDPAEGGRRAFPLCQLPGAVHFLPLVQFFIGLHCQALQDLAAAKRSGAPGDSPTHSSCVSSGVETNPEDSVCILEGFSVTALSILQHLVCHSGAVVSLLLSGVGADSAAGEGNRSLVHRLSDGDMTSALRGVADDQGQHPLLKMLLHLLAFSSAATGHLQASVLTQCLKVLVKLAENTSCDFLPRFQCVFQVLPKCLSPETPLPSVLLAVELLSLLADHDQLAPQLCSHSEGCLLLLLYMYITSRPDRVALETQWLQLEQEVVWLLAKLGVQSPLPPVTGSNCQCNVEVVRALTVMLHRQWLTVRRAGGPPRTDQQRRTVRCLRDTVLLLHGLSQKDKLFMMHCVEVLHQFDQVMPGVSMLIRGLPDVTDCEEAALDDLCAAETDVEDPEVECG
assayName: Assay b): ATR cellular potency (pChk1 Ser345 in HT29 cells after 4NQO)
Assay type: cell-based
protocolConditions: HT29 cells, 4NQO, pChk1 Ser345; Table 2; read-out: Assay b) ATR Cell IC50
pIC50: −log10 of the molar value.
# pIC50 values compiled below

Previously resolved entries follow.
Cn1c(=O)n(C2CCOCC2)c2c3cc(-c4ccc(OCCCN5CCCC5)cc4)c(F)cc3ncc21 [Example 46]
4.77
CO[C@@H]1CC[C@H](n2c(=O)n(C)c3cnc4cc(F)c(-c5ccc(OCCCN(C)C)cc5)cc4c32)C1 (single isomer, unassigned) [Example 36]
< 4.52

Prompt: Please tell me the measured pIC50 for CO[C@H]1CC[C@H](n2c(=O)n(C)c3cnc4ccc(-c5ccc(OCCN(C)C)cc5)cc4c32)C1 [Example 52] ; system: ATR kinase (Homo sapiens).
Completion: 4.66

Prompt: Please tell me the measured pIC50 for CO[C@@H]1CC[C@H](n2c(=O)n(C)c3cnc4cc(F)c(-c5ccc(OCCCN(C)C)cc5)cc4c32)C1 (single isomer, unassigned) [Example 37] ; system: ATR kinase (Homo sapiens).
Completion: < 4.52

Prompt: Please tell me the measured pIC50 for CO[C@H]1C[C@@H](n2c(=O)n(C)c3cnc4ccc(-c5ccc(OCCCN(C)C)cc5)cc4c32)C1 [Example 11] ; system: ATR kinase (Homo sapiens).
Completion: < 4.52

Prompt: Please tell me the measured pIC50 for CO[C@H]1CC[C@H](n2c(=O)n(C)c3cnc4cc(F)c(-c5ccc(OCCCN6CCC6)cc5)cc4c32)C1 (single isomer, unassigned) [Example 23] ; system: ATR kinase (Homo sapiens).
Completion: < 4.52

====

measuredTarget: mTOR (Homo sapiens, UniProt P42345)
Construct: phosphorylation of the Akt protein at Ser473 (AKT lies downstream of PI3Kα in the signal transduction pathway) in the MDA-MB-468 cells; endogenous in cells; host or cells: MDA-MB-468 cells (ATCC HTB 132)
assayName: Assay d): mTOR cellular potency (phospho-AKT Ser473 in MDA-MB-468 cells)
Type: cell-based
protocolConditions: MDA-MB-468 cells, phospho-AKT Ser473, 2 h; Table 2; read-out: Assay d) mTOR Cell IC50
# pIC50 values compiled below
pIC50 (log units): -log10 of the concentration in mol/L.

Previously resolved entries follow.
CO[C@@H]1CC[C@H](n2c(=O)n(C)c3cnc4cc(F)c(-c5ccc(OCCCN(C)C)cc5)cc4c32)C1 (single isomer, unassigned)
5.39
Cn1c(=O)n([C@H]2CCCOC2)c2c3cc(-c4ccc(OCCCN5CCCC5)cc4)ccc3ncc21
5.59
CN(C)CCOc1ccc(-c2ccc3ncc4c(c3c2)n([C@@H]2CCCOC2)c(=O)n4C)cc1
5.75

Prompt: Provide only the value of recorded pIC50 for CN(C)CCOc1ccc(-c2ccc3ncc4c(c3c2)n([C@H]2CCCOC2)c(=O)n4C)cc1
Completion: 5.26

Prompt: Provide only the value of recorded pIC50 for CO[C@@H]1CC[C@@H](n2c(=O)n(C)c3cnc4ccc(-c5ccc(OCCCN6CCCC6)cc5)cc4c32)C1 (single isomer, unassigned)
Completion: 5.26

Prompt: Provide only the value of recorded pIC50 for CO[C@H]1C[C@@H](n2c(=O)n(C)c3cnc4ccc(-c5ccc(OCCN(C)C)cc5)cc4c32)C1
Completion: 5.35

Prompt: Provide only the value of recorded pIC50 for CO[C@H]1CC[C@H](n2c(=O)n(C)c3cnc4ccc(-c5ccc(OCCCN(C)C)cc5)cc4c32)C1
Completion: 6.11

====

measuredTarget: ATM kinase (Homo sapiens, UniProt Q13315)
Construct: endogenous in cells; host or cells: HT29 cells (ECACC #85061109)
assayName: Assay a): ATM cellular potency (pATM Ser1981 in irradiated HT29 cells)
Format: cell-based
protocolConditions: HT29 cells, X-ray irradiation, pATM Ser1981; Table 2; read-out: Assay a) ATM Cell IC50
Could you please mark t for values of IC50 below 10 nM and f for values at or above it?

Worked cases, answers included:
CN(C)CCOc1ccc(-c2ccc3ncc4c(c3c2)n(C2CCOCC2)c(=O)n4C)cc1 [Example 54]
f
CN(C)CCOc1ccc(-c2ccc3ncc4c(c3c2)n([C@@H]2CCCOC2)c(=O)n4C)cc1 [Example 48]
f
CN(C)CCCOc1ccc(-c2cc3c(cc2F)ncc2c3n([C@H]3CCCOC3)c(=O)n2C)cc1 [Example 10]
t
CO[C@H]1CC[C@@H](n2c(=O)n(C)c3cnc4ccc(-c5ccc(OCCCN(C)C)cc5)cc4c32)CC1 [Example 25]
t

Prompt: Take the compound CC(C)n1c(=O)n(C)c2cnc3ccc(-c4ccc(OCCN(C)C)cc4)cc3c21 [Example 5] and say whether its IC50 is less than 10 nM.
Completion: f

====

measuredTarget: ATR kinase (Homo sapiens)
Construct: endogenous in cells; host or cells: HT29 cells (ECACC #85061109)
assayName: Assay b): ATR cellular potency (pChk1 Ser345 in HT29 cells after 4NQO)
Format: cell-based
protocolConditions: HT29 cells, 4NQO, pChk1 Ser345; Table 2; read-out: Assay b) ATR Cell IC50
measurementType: IC50 (µM)
Numbers only; they are read as µM.

Previously resolved entries follow.
CO[C@H]1CCC[C@H](n2c(=O)n(C)c3cnc4ccc(-c5ccc(OCCCN(C)C)cc5)cc4c32)C1 (single isomer, unassigned) [Example 29]
12.8
CO[C@H]1CC[C@H](n2c(=O)n(C)c3cnc4ccc(-c5ccc(OCCCN6CCCC6)cc5)cc4c32)C1 (single isomer, unassigned)
18

Prompt: Provide only the value of recorded IC50 for CO[C@@H]1CCC[C@H](n2c(=O)n(C)c3cnc4ccc(-c5ccc(OCCCN(C)C)cc5)cc4c32)C1 (relative stereo) [Example 33]
Completion: 28
